These entries and their values trace back to patent US20220267464A1.

# system: T1, human CEACAM5 (carcinoembryonic antigen, CEA) on cells (human, UniProt P06731 35-685)
# T1 construct: endogenous on MKN45 gastric adenocarcinoma cells; full-length cDNA stably transfected in the CHO-K1 clones; also called huCEACAM5; MKN45 cells
# T1 sequence: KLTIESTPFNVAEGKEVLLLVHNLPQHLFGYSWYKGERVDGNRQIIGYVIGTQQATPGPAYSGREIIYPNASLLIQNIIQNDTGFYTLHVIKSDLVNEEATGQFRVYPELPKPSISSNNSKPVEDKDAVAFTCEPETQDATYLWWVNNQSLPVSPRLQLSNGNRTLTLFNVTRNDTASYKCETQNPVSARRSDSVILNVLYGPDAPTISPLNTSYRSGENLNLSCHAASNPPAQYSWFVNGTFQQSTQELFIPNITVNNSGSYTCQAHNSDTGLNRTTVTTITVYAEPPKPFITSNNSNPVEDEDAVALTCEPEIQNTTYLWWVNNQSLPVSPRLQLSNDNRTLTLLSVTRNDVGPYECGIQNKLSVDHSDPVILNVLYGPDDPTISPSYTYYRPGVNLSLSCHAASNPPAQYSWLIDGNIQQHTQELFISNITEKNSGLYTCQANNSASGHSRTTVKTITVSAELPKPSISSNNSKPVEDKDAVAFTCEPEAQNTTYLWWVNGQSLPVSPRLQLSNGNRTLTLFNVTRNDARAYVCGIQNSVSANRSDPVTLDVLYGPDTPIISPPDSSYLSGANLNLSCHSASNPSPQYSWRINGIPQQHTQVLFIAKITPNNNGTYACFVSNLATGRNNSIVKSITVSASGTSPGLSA
# assay.overview: flow cytometry, MKN45 cells
reported.metric: EC50

Ask: Give its EC50 value. Item: P1AE3096 (antibody, IgG1, V domains shown, huIgG1 P329G LALA; also called MFE-H29 / MFE-L28) VH: QVQLVQSGAEVKKPGSSVKVSCKASGFNIKDSYMHWVRQAPGQGLEWMGWIDPENGDTEYAPKFQGRVTITTDESTSTAYMELSSLRSEDTAVYYCNEGTPTGPYYFDYWGQGTLVTVSS VL: EIQMTQSPSSLSASVGDRVTITCRASSSVPYMHWLQQKPGKAPKLLIYSTSNLASGVPSRFSGSGSGTDFTLTISSVQPEDFATYYCQQRSSYPLTFGGGTKLEIK
Reply: 10.5 nM
